- Test system: A549
- experiment: NCI tumour cell line growth inhibition, 48 h
Where a name gives a salt, the structure may show the parent alone. The source made the active and inactive calls. No stated cut-off is given here; in the data, active = GI50 up to about 1.1 µM and inactive = higher.
readout type: GI50

- CCOC(=O)c1cccc(/N=N/c2nc[nH]c2/C=C/C(=O)OC)c1: 39.5 µM (inactive)
- COc1ccc(N2C(=O)CC(=O)N(C(=O)CCCCCCCCC(=O)N3C(=O)CC(=O)N(c4ccc(OC)cc4)C3=S)C2=S)cc1: > 100 µM (inactive)
- O=C(Nc1ccc(F)cc1)C(=O)C(C1OC(=O)c2ccccc21)[N+](=O)[O-] (centres undefined): > 100 µM (inactive)
- N#Cc1ccc(OCc2ccc3nc(-c4ccccc4)c(Cl)nc3c2)cc1: > 100 µM (inactive)
- C=C1C(=O)O[C@H]2C(=O)[C@H](C)CCC/C(C)=C/CC[C@@]3(C)O[C@@H]3C[C@@H]12: 5.82 µM (inactive)
- O=c1[nH]c(=O)n(C2CC(O)C(CO)O2)c2nc3ccc4ccccc4c3nc12 (centres undefined): > 100 µM (inactive)
- Nc1nc2c(ncn2C2C=CC(COS(N)(=O)=O)C2)c(=O)[nH]1 (centres undefined): > 100 µM (inactive)
- N=c1ccn2c(n1)O[C@H]1[C@H](O)[C@@H](CO)O[C@H]12 [ANCITABINE HYDROCHLORIDE]: 0.198 µM (active)
- O=C(Cn1ccc(=O)[nH]c1=O)Nc1ccc(C(=O)O)c(O)c1: > 100 µM (inactive)
- O=C(Nc1nnc(-c2ccccc2)o1)C(SC(=S)N1CCCCC1)c1ccccc1 (centres undefined): 17.1 µM (inactive)
- Clc1ccc2c(Cl)ncnc2c1: > 100 µM (inactive)
- CCCN1C(=O)CN(S(=O)(=O)c2ccc(Cl)cc2)C1=O: > 100 µM (inactive)
- O=S1(=O)CCN(Cc2ccccc2)/C1=N\S(=O)(=O)c1ccc(Cl)cc1: 65.3 µM (inactive)
- CCS(CC)(CC)CC1CCCC2=CCC(P(=O)(c3ccccc3)c3ccccc3)CC21 (centres undefined): 4.89 µM (inactive)
- CC1C(OC2O[C@@H]3O[C@@]4(C)CC[C@H]5[C@H](C)CC[C@@H](C2C)[C@@]35O4)O[C@@H]2O[C@@]3(C)CC[C@H]4[C@H](C)CC[C@@H]1[C@@]24O3 (some centres undefined): > 50 µM (inactive)
- CC1CN(CCO)CC(C)O1 (centres undefined): > 100 µM (inactive)
- CCOC(=O)C(C#N)C1=CC(=O)C(=O)c2ccc(OC)cc21 (centres undefined): 19.7 µM (inactive)
- O=[N+]([O-])c1ccc2nc(/C(=N/Nc3ccccc3)C(O)c3ccco3)c(O)nc2c1 (centres undefined): > 100 µM (inactive)
- COC(=O)c1cc(O)ccc1O [METHYL 2,5-DIHYDROXYBENZOATE]: > 100 µM (inactive)

* * *

- Test system: KM-20L2
- experiment: NCI tumour cell line growth inhibition, 48 h
Active and inactive are the calls of the source. Rule as the data show it: active = GI50 up to about 1.1 µM and inactive = higher.
readout type: GI50

• COc1ccc(/C=C/c2onc3c(=O)n(C)nc(-c4ccccc4)c23)cc1 = > 100 µM (inactive)
• O=C(O)CSc1nnc(/C=C/c2ccccc2)[nH]1 = > 100 µM (inactive)
• Cc1cccc(C)c1NC(=O)C(=O)C(C#N)c1ccccc1Cl (stereo not drawn) = > 100 µM (inactive)
• Cc1cc2c3ccccc3n3c2c2c1OC1(C)CCC(C2C1)C3(C)C (stereo not drawn) = > 25 µM (inactive)
• COc1ccccc1NC(=O)C1=C(C)NC(C)=C(C(=O)Nc2ccccc2OC)C1c1ccc(C)cc1 = > 100 µM (inactive)
• COCc1c(CO)cnc(C)c1OC1OC(CO)C(O)C(O)C1O (stereo not drawn) = > 100 µM (inactive)
• Cc1ccc(NCC(=O)N2CC(=O)Nc3ccccc32)cc1 = > 100 µM (inactive)
• CSC(=S)N(C)c1nc(N(C)C)s[s+]1 = > 100 µM (inactive)
• Cc1ccc(NC(=O)/C(=N\NC(N)=S)C(C#N)c2ccccc2C)cc1C (stereo not drawn) = > 100 µM (inactive)
• O=C1C(Cl)C(c2cccc(O)c2)N1n1cnc2ccccc2c1=O (stereo not drawn) = > 100 µM (inactive)
• COc1ccc2cccc(C(=N)c3ccc(C)c4c3CCC4)c2c1 = 5.82 µM (inactive)
• CCN(CC)CCCOC(=O)/C=C/c1c(C)[nH]c(=O)[nH]c1=O = > 625 µM (inactive)
• C(=C1/CCCCC([n+]2ccccc2)=N1)/c1ccccc1 = > 100 µM (inactive)
• O=C1c2ccccc2C(=O)c2c(O)c(NCCNCCO)cc(O)c21 = 4.12 µM (inactive)
• O=C(Oc1ccc2c(-c3ccccc3)c(C(=O)Nc3ccc(Cl)cc3)c(=O)oc2c1)c1ccccc1 = > 100 µM (inactive)
• COC(=O)C1CC(c2ccc(Cl)cc2)=NO1 (stereo not drawn) = > 100 µM (inactive)
• COc1ccc2[nH]c3c(C)c4c(c(C)c3c2c1)CN(C)CC4 = 17 µM (inactive)
• N[C@H](C(=O)O)[C@@H](Cl)CC(=O)O = > 100 µM (inactive)
• O=C1C=CC2(CCC23C=CC(=O)O3)O1 (stereo not drawn) = > 100 µM (inactive)
• COc1cccc2c1CCc1ccccc1CC2=O = > 100 µM (inactive)
• O=C1c2ccccc2C(=O)c2c1ccc1conc21 = 15.4 µM (inactive)
• CCOC(=O)C1CC/C(=C(/C#N)C(=O)OC)N1 (stereo not drawn) = > 100 µM (inactive)
• N#CCCN(CCC#N)c1ccc(/C=C2\N=C(c3cc([N+](=O)[O-])ccc3Cl)N(S(=O)(=O)c3ccccc3)C2=O)cc1 = > 100 µM (inactive)

Measured values drawn from ChEMBL document CHEMBL1201862 for this set.
